Molecular target: recombinant MMP-9 (Homo sapiens, UniProt P14780)
Sequence (P14780 107-707 limits assumed, species assumed): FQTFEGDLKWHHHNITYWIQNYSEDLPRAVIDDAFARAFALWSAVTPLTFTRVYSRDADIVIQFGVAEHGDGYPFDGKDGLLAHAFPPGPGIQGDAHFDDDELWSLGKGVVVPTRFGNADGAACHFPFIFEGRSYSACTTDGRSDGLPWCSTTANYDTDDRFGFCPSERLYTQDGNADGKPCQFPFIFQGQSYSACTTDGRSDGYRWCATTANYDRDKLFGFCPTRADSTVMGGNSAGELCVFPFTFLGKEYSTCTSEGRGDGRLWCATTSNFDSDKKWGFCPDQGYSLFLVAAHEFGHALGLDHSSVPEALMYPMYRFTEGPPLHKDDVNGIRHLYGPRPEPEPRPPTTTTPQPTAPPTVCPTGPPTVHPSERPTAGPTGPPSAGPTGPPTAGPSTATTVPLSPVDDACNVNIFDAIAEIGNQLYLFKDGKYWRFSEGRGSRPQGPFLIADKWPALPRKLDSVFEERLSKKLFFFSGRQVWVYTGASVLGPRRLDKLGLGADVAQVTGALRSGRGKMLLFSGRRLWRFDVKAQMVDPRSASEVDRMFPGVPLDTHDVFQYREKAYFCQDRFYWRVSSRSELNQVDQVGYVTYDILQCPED
Assay: MMP compound screening, recombinant MMP-9 (SensoLyte 390 Generic MMP Activity Kit)
Assay type: biochemical
Conditions: 10 nM compound; read-out: inhibition of MMP-9 activity, % of total activity
Response key: Yes means inhibition at 0.01 µM >= 60%; No means inhibition at 0.01 µM < 60%.

Answered examples (2):
compound	category_label
COc1ccc(S(=O)(=O)N(Cc2cn(CCOCCn3cc(CCCF)nn3)nn2)[C@@H](C(=O)NO)C(C)C)cc1 [M008]	Yes
COc1ccc(S(=O)(=O)N(Cc2cn(CCOCCNC(=O)c3cc(C(=O)NCCOCCn4cc(CN([C@@H](C(=O)NO)C(C)C)S(=O)(=O)c5ccc(OC)cc5)nn4)cc(-n4cc(CCCF)nn4)c3)nn2)[C@H](C(=O)NO)C(C)C)cc1 [M011]	No

Could you verify whether the entry COc1ccc(S(=O)(=O)N(Cc2cn(CCOCCNC(=O)c3cc(C(=O)O)cc(-n4cc(CCCF)nn4)c3)nn2)[C@@H](C(=O)NO)C(C)C)cc1 [M013] shows inhibition at 0.01 µM of no less than 60%? Yes

Check the entry COc1ccc(S(=O)(=O)N(Cc2cn(CCOCCn3cc(CN([C@@H](C(=O)NO)C(C)C)S(=O)(=O)c4ccc(OC)cc4)nn3)nn2)[C@H](C(=O)NO)C(C)C)cc1 [M007] : does inhibition at 0.01 µM equal or exceed 60%? Yes

// inclusive: inhibition at 0.01 µM at least 60%? input: COc1ccc(S(=O)(=O)N(Cc2cn(CCOCCOCCOCCNC(=O)CCC(NC(=O)Cn3cc(CCCF)nn3)C(=O)NCCOCCOCCOCCn3cc(CN([C@@H](C(=O)NOC(C)(C)C)C(C)C)S(=O)(=O)c4ccc(OC)cc4)nn3)nn2)[C@@H](C(=O)NO)C(C)C)cc1 (some centres unmarked) [M010] No
